test system: approximately 55 different cancer cell lines of diverse tumor origins; experiment: NCI screen mean graph midpoint over all cell lines tested; assay type: cell-based, human; settings: average GI50 for all cell lines tested (approximately 55); values outside test range taken as 10^-8 or 10^-4 molar; read-out: MGM (mean graph midpoint)
pIC50: −log10 of the molar value.
measured.property: pIC50

> print(dat)
                                   compound  reported
1  O=C1c2ccccc2-c2c1c1ccccc1c(=O)n2CCCCCO [Compound 8]      4.85
2  COc1cc2c3c(n(C)c(=O)c2cc1OC)-c1cc(OC)c(OC)c(OC)c1C3=O [Compound 13i]      4.02
3  C=CCN1C(=O)c2cc(OC)c(OC)cc2[C@H]2C(=O)c3cc4c(cc3[C@H]21)OCO4 (relative stereo) [Compound 22]      6.01

Provenance of the data: patent US6509344B1
